// data source = patent US9458154B2

Tested On: p38alpha (Homo sapiens)
Sequence (Q16539 whole entry): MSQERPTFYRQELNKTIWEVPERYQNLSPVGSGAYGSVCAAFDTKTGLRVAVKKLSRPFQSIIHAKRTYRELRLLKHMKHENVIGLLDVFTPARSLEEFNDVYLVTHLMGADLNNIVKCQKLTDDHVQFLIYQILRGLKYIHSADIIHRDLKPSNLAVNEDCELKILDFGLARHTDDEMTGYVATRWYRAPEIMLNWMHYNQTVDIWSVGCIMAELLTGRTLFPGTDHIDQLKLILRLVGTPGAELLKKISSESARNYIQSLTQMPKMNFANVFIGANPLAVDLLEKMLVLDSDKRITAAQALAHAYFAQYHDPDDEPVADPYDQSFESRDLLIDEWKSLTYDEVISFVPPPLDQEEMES
Test Description: P38alpha Enzyme Inhibition Assay (Alphascreen kinase activity assay)
Measurement Parameters: 100 pM p38alpha, ATF-2 fusion protein substrate, 250 μM ATP, 2 hours preincubation at 25° C.; read-out: p38α inhibition
Where a name gives a salt, the structure may show the parent alone.
Recorded Endpoint: IC50

Please review the following examples before continuing.
INSERT INTO measurements (compound, recorded_endpoint, experimental_result) VALUES
  ('Cc1ccc(-n2nc(C(C)(C)C)cc2NC(=O)N[C@H]2CC[C@@H](Oc3ccc4nnc(-c5ccccn5)n4c3)c3ccccc32)cc1', 'IC50', '< 10 nM'),
  ('CC(C)c1nnc2ccc(O[C@@H]3CC[C@H](NC(=O)Nc4cc(C(C)(C)C)nn4-c4cccc(CN5CCOCC5)c4)c4ccccc43)cn12 [Example 19, formic acid salt]', 'IC50', '< 10 nM');

Would you kindly look at the next entry?
What reported IC50 corresponds to `CC(C)c1nnc2ccc(O[C@@H]3CC[C@H](NC(=O)Nc4cc(F)cc(N5CCOCC5)c4)c4ccccc43)cn12` on p38alpha (Homo sapiens)?
< 10 nM
